- Tested on: Lipopolysaccharide (LPS)
- Assay method text: Displacement of dansyl-PMB from LPS by fluorometric assay
Entries annotated with measured dansyl-PMB displacement concentration
Your answer is read as µg/mL, so omit the unit and give the number.

// below: answered molecules
[[record]]
molecule = "CCCNCC[C@H](NC(=O)CCCCC(C)CC)C(=O)N[C@H](C(=O)N[C@@H](CCN)C(=O)N[C@H]1CCNC(=O)[C@H]([C@@H](C)O)NC(=O)[C@H](CCN)NC(=O)[C@H](CCN)NC(=O)[C@H](CC(C)C)NC(=O)[C@@H](Cc2ccccc2)NC(=O)[C@H](CCN)NC1=O)[C@@H](C)O (stereo partly drawn)"
assay_target = "Lipopolysaccharide (LPS)"
recorded_measurement = 2.4

[[record]]
molecule = "CCNCC[C@H](NC(=O)CCCCC(C)CC)C(=O)N[C@H](C(=O)N[C@@H](CCN)C(=O)N[C@H]1CCNC(=O)[C@H]([C@@H](C)O)NC(=O)[C@H](CCN)NC(=O)[C@H](CCN)NC(=O)[C@H](CC(C)C)NC(=O)[C@@H](Cc2ccccc2)NC(=O)[C@H](CCN)NC1=O)[C@@H](C)O (stereo partly drawn)"
assay_target = "Lipopolysaccharide (LPS)"
recorded_measurement = 2.3

[[record]]
molecule = "CCNCC[C@@H]1NC(=O)[C@H](CCN)NC(=O)[C@H](CC(C)C)NC(=O)[C@@H](Cc2ccccc2)NC(=O)[C@H](CCN)NC(=O)[C@@H](NC(=O)[C@H](CCN)NC(=O)[C@@H](NC(=O)[C@H](CCN)NC(=O)CCCCC(C)CC)[C@@H](C)O)CCNC(=O)[C@H]([C@@H](C)O)NC1=O (stereo partly drawn)"
assay_target = "Lipopolysaccharide (LPS)"
recorded_measurement = 9.5

[[record]]
molecule = "CCC(C)CCCCC(=O)N[C@@H](CCNC(=O)CN)C(=O)N[C@H](C(=O)N[C@@H](CCN)C(=O)N[C@H]1CCNC(=O)[C@H]([C@@H](C)O)NC(=O)[C@H](CCN)NC(=O)[C@H](CCN)NC(=O)[C@H](CC(C)C)NC(=O)[C@@H](Cc2ccccc2)NC(=O)[C@H](CCN)NC1=O)[C@@H](C)O (stereo partly drawn)"
assay_target = "Lipopolysaccharide (LPS)"
recorded_measurement = 8

[[record]]
molecule = "CCC(C)CCCCC(=O)N[C@@H](CCNC(=O)C(N)CCCCNC(=O)OCc1ccccc1)C(=O)N[C@H](C(=O)N[C@@H](CCN)C(=O)N[C@H]1CCNC(=O)[C@H]([C@@H](C)O)NC(=O)[C@H](CCN)NC(=O)[C@H](CCN)NC(=O)[C@H](CC(C)C)NC(=O)[C@@H](Cc2ccccc2)NC(=O)[C@H](CCN)NC1=O)[C@@H](C)O (stereo partly drawn)"
assay_target = "Lipopolysaccharide (LPS)"
recorded_measurement = 1.12


For CCC(C)CCCCC(=O)N[C@@H](CCNC(=O)C(N)CCCNC(=N)N)C(=O)N[C@H](C(=O)N[C@@H](CCN)C(=O)N[C@H]1CCNC(=O)[C@H]([C@@H](C)O)NC(=O)[C@H](CCN)NC(=O)[C@H](CCN)NC(=O)[C@H](CC(C)C)NC(=O)[C@@H](Cc2ccccc2)NC(=O)[C@H](CCN)NC1=O)[C@@H](C)O (stereo partly drawn) on Lipopolysaccharide (LPS), measured dansyl-PMB displacement concentration was 4.48

For CCC(C)CCCCC(=O)N[C@@H](CCNC(C)=O)C(=O)N[C@H](C(=O)N[C@@H](CCN)C(=O)N[C@H]1CCNC(=O)[C@H]([C@@H](C)O)NC(=O)[C@H](CCN)NC(=O)[C@H](CCN)NC(=O)[C@H](CC(C)C)NC(=O)[C@@H](Cc2ccccc2)NC(=O)[C@H](CCN)NC1=O)[C@@H](C)O (stereo partly drawn) on Lipopolysaccharide (LPS), measured dansyl-PMB displacement concentration was 2.8

For CCCNCC[C@@H]1NC(=O)[C@H](CCN)NC(=O)[C@H](CC(C)C)NC(=O)[C@@H](Cc2ccccc2)NC(=O)[C@H](CCN)NC(=O)[C@@H](NC(=O)[C@H](CCN)NC(=O)[C@@H](NC(=O)[C@H](CCN)NC(=O)CCCCC(C)CC)[C@@H](C)O)CCNC(=O)[C@H]([C@@H](C)O)NC1=O (stereo partly drawn) on Lipopolysaccharide (LPS), measured dansyl-PMB displacement concentration was 9.5
